src = PubChem BioAssay AID430

# METHOD_SUMMARY: cytotoxicity in HPDE-C7 cells, cell-based, fluorescence, HTS (AID 430);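 note: cells exposed to compound for 48 hours before viability readout; 0% = vehicle and 100% = reference cytotoxic drug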
# MEASUREMENT_CONDITIONS: HPDE-C7 pancreatic duct cells viability, at 10 µM, hits give high values
The whole screen tested about 63,000 compounds, of which about 1,100 (1.7%) were called active. This is one part of a sample in which actives are shown more often than they occur. Potency and affinity values are given separately.
MEASUREMENT_KIND: cytotoxicity

Reference set (3 entries):
Cc1cccc(NC2=NC3(CCCCC3)N=C(N)N2)c1C : -3.7% (inactive)
Cc1cccc(N2CCN(c3cccc(C)c3)C2c2cccnc2)c1 : 52.6% (active)
CC(C)Sc1nc2c(cnn2-c2ccccc2)c(=O)[nH]1 : -15.9% (inactive)

Below are some compounds; for each one, tell me its cytotoxicity.
1. CCCOc1ccc(C2c3c(oc4cc(C)c(C)cc4c3=O)C(=O)N2CCCN(C)C)cc1 (stereo unspecified)
2. CC(=O)/C=C(/C)NC(Cc1c[nH]c2ccccc12)C(=O)O (stereo unspecified)
3. CCc1ccccc1NC(=O)CCc1nc(-c2ccc(C)cc2)no1

1: -4.2% (inactive); 2: 2.1% (inactive); 3: -5.6% (inactive)

* * *

# METHOD_SUMMARY: cytotoxicity in HPDE-C7 cells, cell-based, fluorescence, HTS (AID 430);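 note: cells exposed to compound for 48 hours before viability readout; 0% = vehicle and 100% = reference cytotoxic drug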
# MEASUREMENT_CONDITIONS: HPDE-C7 pancreatic duct cells viability, at 10 µM, hits give high values
Among all 63,000 compounds or so, about 1,100 (1.7%) were called active. The entries come from a sample that favours actives as a whole. Measured potencies and affinities stand elsewhere.
Rule: cytotoxicity below 20% gives met, anything at or above gives not met.

O=S(=O)(Nc1ccc2c(c1)OCO2)c1cccs1 : met
O=c1[nH]c2ccccc2n1CCCN1CCN(C(c2ccccc2)c2ccccc2)CC1 : met
CCC(C)NC(=O)NC1C(NC(=O)NC(C)CC)N(C)C(=O)N1C (stereo unspecified) : met
O=C(O)c1ccc2c3c(ncnc13)-c1ccccc1C2=O : not met

For this compound, is cytotoxicity lower than 20%? O=C1c2ccccc2-c2ncnc3cccc1c23 met

For this compound, is cytotoxicity lower than 20%? O=C1c2ccccc2-c2nccnc21 met

* * *

# METHOD_SUMMARY: cytotoxicity in HPDE-C7 cells, cell-based, fluorescence, HTS (AID 430);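 note: cells exposed to compound for 48 hours before viability readout; 0% = vehicle and 100% = reference cytotoxic drug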
# MEASUREMENT_CONDITIONS: HPDE-C7 pancreatic duct cells viability, at 10 µM, hits give high values
The whole screen tested about 63,000 compounds, of which about 1,100 (1.7%) were called active. The sample as a whole holds a higher share of actives than the screen did. Results with a measured potency or affinity are listed apart.
MEASUREMENT_KIND: cytotoxicity (%)
Give bare numbers, in %.

Reference set (10 entries):
CCOC(=O)c1sc(NC(=O)c2ccco2)nc1-c1ccccc1 : -8.2
OCCN(CCO)c1ncnc2c1sc1nc(N3CCOCC3)c3c(c12)CCCC3 : -3.9
Cc1ccc(O)c(Sc2cc(C)ccc2O)c1 : 52.6
CCCCS(=O)(=O)/C=C\C=C/S(=O)(=O)CCCC : 111
CC(=O)Oc1ccc(N2C(=O)C3C(C2=O)C2(C)C=CC3(C)O2)cc1 (stereo not given) : -4
CCCCOc1ccc(C(=O)Nc2ccncc2)cc1 : 7.8
CC(=O)N1CCN(C(=O)COc2ccc(Br)cc2)CC1 : 4.1
CCOC(=O)CSc1nc(C)cc(=O)[nH]1 : 1.4
CSc1nc(N2CCN(CCO)CC2)c2sc3nc(-c4ccco4)c4c(c3c2n1)CCC4 : -8.6
CN1CCN(CC#CC2(O)CCCCC2)CC1 : -31.9

Below are some compounds; for each one, tell me its cytotoxicity.
1. c1nc(NCCN2CCOCC2)c2sc3nc(N4CCOCC4)c4c(c3c2n1)CCC4
2. Cc1ccc(Oc2ccc(NC(=O)c3ccco3)cc2)cc1
3. CCOC(=O)c1sc(NC(C)=O)c(C(=O)OCC)c1C

1. 16.6
2. 78.8
3. 4.3
